Test system: PBMC
Assay: Cytotoxicity against human PBMC assessed as reduction in cell viability after 6 days by trypan blue exclusion assay
Format: cell-based
Conditions: 144 h
PROPERTY_MEASURED: CC50

The following molecules each have a reported value; give each one's CC50.
1. CC(C)C[C@H](NC(=O)[C@H](Cc1cccc2ccccc12)NC(=O)OCc1ccccc1)C(=O)NC(/C=C/C=O)C[C@@H]1CCNC1=O (some centres not stated)
2. CC(C)C[C@H](NC(=O)[C@H](Cc1cccc2ccccc12)NC(=O)OCc1ccccc1)C(=O)N[C@H](CS)C[C@@H]1CCNC1=O
3. CC(C)C[C@H](NC(=O)[C@H](Cc1cccc2ccccc12)NC(=O)OCc1ccccc1)C(=O)NC(C[C@@H]1CCNC1=O)C1OC1S(C)(=O)=O (some centres not stated)

["3.9 µM", "> 100 µM", "> 100 µM"]

Values were extracted from ChEMBL document CHEMBL4118198.
